These data points were gathered from PubChem BioAssay AID330.

Provide the reported T/C of each item.
- Tested on: P388 leukemia ip, CD2F1 mice, survival T/C
- Procedure Details: NCI In Vivo Anticancer Drug Screen. Data for tumor model P388 Leukemia (intraperitoneal) in CD2F1 (CDF1) mice
- Study Conditions: endpoint: median survival time; dose: 100.0 mg/kg/injection; schedule: Q04DX003 (ip); vehicle: Klucel (hydroxypropylcellulose) (HPC); higher = longer survival
Inconclusive results and toxic doses are left out.

Example cases with answers are listed next.
The compound listed as CCC(C)Sc1nc2ccc(NC(=O)/C=C/C(=O)O)cc2s1 (stereo not drawn) shows T/C equal to 95 % of control

Notebook: CC12CCC3C(CCC4CC5OC(=O)CC5CC43C)C1CCC2=O (stereo not drawn) , T/C read as 107 % of control

Continuing:
Quick note, T/C for COC(OC)C(C(=O)c1ccc(OCc2ccccc2)cc1O)c1cc2c(cc1OCc1ccccc1)OCO2 (stereo not drawn) landed at 96 % of control

* * *

Task for the reader: assign each of the following molecules its reported T/C.
- System: P388 leukemia ip, CD2F1 mice, survival T/C
- Procedure Details: NCI In Vivo Anticancer Drug Screen. Data for tumor model P388 Leukemia (intraperitoneal) in CD2F1 (CDF1) mice
- Study Conditions: endpoint: median survival time; dose: 12.5 mg/kg/injection; schedule: Q01DX009 (ip); vehicle: Klucel (hydroxypropylcellulose) (HPC); higher = longer survival
Toxic doses and inconclusive results are not listed.

See these solved cases before continuing.
Entry NNC(=O)CN1c2ccccc2Sc2ccc(Cl)cc21 , T/C reported as 95 % of control

Note to self: T/C recorded for CSC(=S)Nc1nc2ccc(Cl)cc2s1 was 111 % of control

# batch: return T/C for each of the 5 molecules below
1. Nc1nc(Cl)cc(Cl)n1
2. Cc1ccc(NS(=O)(=O)N2CCCCC2)cc1
3. CC1CC2(OC2C)C(=O)OC2CCN(C)C/C=C(/COC(=O)C1(C)O)C2=O (configuration not stated)
4. c1ccc(Cc2cccc[n+]2C(c2ccccc2)c2ccccc2)cc1
5. O=C1Nc2ccccc2/C1=C/c1ccc(Cl)c(Cl)c1

1: 94 % of control; 2: 106 % of control; 3: 103 % of control; 4: 87 % of control; 5: 95 % of control

* * *

- System: P388 leukemia ip, CD2F1 mice, survival T/C
- Procedure Details: NCI In Vivo Anticancer Drug Screen. Data for tumor model P388 Leukemia (intraperitoneal) in CD2F1 (CDF1) mice
- Study Conditions: endpoint: median survival time; dose: 200.0 mg/kg/injection; schedule: Q01DX005 (ip); vehicle: Klucel (hydroxypropylcellulose) (HPC); higher = longer survival
Toxic doses and inconclusive results are not listed. Square brackets hold non-standard residues; d marks the D form. Peptide text beside a SMILES is read from it. * marks the point of attachment. ξ: configuration not given here. Cbz = O=C(OCc1ccccc1)*; Bn = c1ccc(C*)cc1; ξC = NC(CS)C(=O)O
Measured Attribute: T/C

Look at each compound and report its T/C.
1. CCOC(=O)c1nc2nc3cc(OC)c(OC)cc3cc2c(=O)[nH]1
2. O=C1c2ccccc2S(=O)(=O)N1Cc1ccccc1CN1C(=O)c2ccccc2S1(=O)=O
3. [N-]=[N+]=NC1(N=[N+]=[N-])C(=O)Nc2ccccc2C1=O (stereo unspecified)
4. O=C(CNC(=O)OCc1ccccc1)NCC(=O)NC(CSCc1ccccc1)C(=O)O (stereo not drawn) (Cbz-Gly-Gly-[ξC](Bn)-OH)

91 % of control
89 % of control
107 % of control
100 % of control

Provide T/C values for the following items, in order.
1. O=C1OC(=O)C2CC3C(CC12)C1(Cl)C(Cl)=C(Cl)C3(Cl)C1(Cl)Cl (stereo unspecified)
2. O=c1c(I)cn(CC(O)CO)c(=O)n1CC(O)CO (stereo unspecified)
3. Cc1ccc(S(=O)(=O)NC(=O)O/N=C/c2ccco2)cc1
4. C[Si]1(C)N(c2ccccc2)[Si](C)(c2ccccc2)N1c1ccccc1

107 % of control
86 % of control
100 % of control
111 % of control

* * *

Record form. Attribute: T/C. Fill in for each entry.
- Tested on: P388 leukemia ip, CD2F1 mice, survival T/C
- Procedure Details: NCI In Vivo Anticancer Drug Screen. Data for tumor model P388 Leukemia (intraperitoneal) in CD2F1 (CDF1) mice
- Study Conditions: endpoint: median survival time; dose: 25.0 mg/kg/injection; schedule: Q01DX005 (ip); vehicle: saline with Tween-80; higher = longer survival
Toxic doses and inconclusive results are not listed.

Some solved cases for reference:
Short answer for COc1ccc(Cc2cc3c(cc2OCC(=O)Nc2ccccn2)OCO3)cc1 : T/C was 86 % of control

Kindly note the recorded T/C for CCCCN(CCCC)C(=N)OC1CCCCC1 , which is 100 % of control

Look at each compound and report its T/C.
1. Cc1c(C(N)=O)c2ccccc2c2ccccc12
2. OC(CCl)COn1nnc2ccccc21 (stereo unspecified)
3. Cl/N=C1C=C/C(=N\Cl)C=C/1Cl
4. N=C(N)SCc1ccc2nsnc2c1

1: 95 % of control; 2: 100 % of control; 3: 107 % of control; 4: 100 % of control

* * *

- Tested on: P388 leukemia ip, CD2F1 mice, survival T/C
- Procedure Details: NCI In Vivo Anticancer Drug Screen. Data for tumor model P388 Leukemia (intraperitoneal) in CD2F1 (CDF1) mice
- Study Conditions: endpoint: median survival time; dose: 50.0 mg/kg/injection; schedule: Q01DX009 (ip); vehicle: Klucel (hydroxypropylcellulose) (HPC); higher = longer survival
Toxic doses and inconclusive results are not listed.
I'd appreciate it if you could supply T/C values for the items below.

Consider the reported T/C for these compounds:
# compound CC1=NN=C(C)C1=Cc1ccccc1[N+](=O)[O-] ; its T/C = 99 % of control

For reference, reported T/C for N#Cc1ccc(NC(=O)CCCC(=O)Nc2ccc(C#N)c(C#N)c2)cc1C#N stands at 97 % of control

Form: compound = OC(CBr)C(O)C(O)C(O)CBr (configuration not stated) ; T/C = 115 % of control

Summary for this compound, O=C(c1ccc(Cl)c(Cl)c1)N1CCNC1=S : T/C is 104 % of control

Consider CCCCC1(CC(=O)OCC)SCCN1C(N)=O (configuration not stated) . Its measured T/C is 100 % of control

// for each compound in input: emit T/C
1. CC(=O)CC(=O)C(F)(F)F.CC(=O)CC(=O)C(F)(F)F.CC(=O)CC(=O)C(F)(F)F.[Sm]
2. Cc1nnc(CN2CCOCC2)n1-c1ccc(Cl)cc1C(=O)c1ccccc1
3. Cc1ccc2c(N(C)C)cc(N(C)C)nc2c1C
4. Cc1cc(C(C)(C)C)ccc1SP(Sc1ccc(C(C)(C)C)cc1C)Sc1ccc(C(C)(C)C)cc1C
5. Clc1ccc2c(c1)C(c1ccccc1)=NCc1nncn1-2
6. Cc1cc(OC2OC(CO)C(O)C(O)C2O)ccc1O (configuration not stated)
7. CCOC(=O)c1ccc(NC(=O)SC2=NCCS2)cc1

1. 96 % of control
2. 96 % of control
3. 104 % of control
4. 100 % of control
5. 95 % of control
6. 96 % of control
7. 101 % of control

* * *

Task for the reader: assign each of the following compounds its reported T/C.
- System: P388 leukemia ip, CD2F1 mice, survival T/C
- Procedure Details: NCI In Vivo Anticancer Drug Screen. Data for tumor model P388 Leukemia (intraperitoneal) in CD2F1 (CDF1) mice
- Study Conditions: endpoint: median survival time; dose: 240.0 mg/kg/injection; schedule: Q01DX005 (ip); vehicle: saline; higher = longer survival
Toxic doses and inconclusive results are not listed.

Please review the entries below; each comes with its answer.
Given item CCCCCC(O)(CCCCC)CCCCC , the value recorded as its T/C is 92 % of control

T/C reported for this compound COCC#CC(C)(C)OC : 99 % of control

Kindly note the recorded T/C for COC(=O)/C(C)=C\n1ccccc1=O , which is 98 % of control

Please fill in: T/C reported for O=S(O)CCCCSSCC(O)CO (stereo unspecified) = 117 % of control

The compound listed as COC(=O)C(=O)C(C(=O)C=C(C)C)c1nc2n(c1O)C(=N)N=N2 (stereo unspecified) has a reported T/C of 104 % of control

The recorded T/C for entry CN(CN1C(=O)CCC1=O)CN1C(=O)CCC1=O equals 119 % of control

Measured T/C of COc1ccc(-c2cc(-c3cc(-c4ccc(OC)cc4)on3)no2)cc1 : 97 % of control

For NC(CCC(=O)NC(CS(=O)(=O)O)C(=O)O)C(=O)O (stereo unspecified) the compound record lists T/C as 108 % of control

The reported T/C of the compound OCC(CO)(CO)NCCCNC(CO)(CO)CO was 97 % of control

Record summary for COc1nc(NC2OC(CO)C(O)C(O)C2O)c(Cl)c(=O)[nH]1 (stereo unspecified) : reported T/C = 102 % of control

For the next question, use this compound.
Sure, the documented T/C for CO[C@@H]1[C@H](O)c2ccccc2N1C(C)=O is 101 % of control
